Provenance of the data: the supplement of paper PMC10567573

B1: NCK2 (parent)
chain: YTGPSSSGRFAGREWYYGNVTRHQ

- Variants of: B1
- assay_explanation: protein stability index of a GFP-peptide fusion (GPS, HEK-293T) (PSI 1-6); higher = more stable;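 also: lentivirally expressed fusions sorted by FACS into six bins by GFP to DsRed ratio, PSI derived from sequencing read proportions per bin multiplied by bin number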
- experimental_parameters: c terminus: a fixed tail appended
measure_name: protein stability index

INSERT INTO measurements (mutation_string, measure_name, value_measured) VALUES
  ('N19I', 'protein stability index', 1.53),
  ('G8T', 'protein stability index', 1.87),
  ('G8E', 'protein stability index', 2.32),
  ('P4A', 'protein stability index', 2.13),
  ('G12I', 'protein stability index', 2.66),
  ('T21H', 'protein stability index', 1.9),
  ('E14N', 'protein stability index', 1.78),
  ('S5I', 'protein stability index', 2.13),
  ('S6F', 'protein stability index', 3.15),
  ('G8I', 'protein stability index', 1.59),
  ('S5E', 'protein stability index', 1.62),
  ('Y16G', 'protein stability index', 1.81),
  ('G18Y', 'protein stability index', 2.03),
  ('G8L', 'protein stability index', 3.02),
  ('R22V', 'protein stability index', 2.18),
  ('G3Q', 'protein stability index', 1.78),
  ('R9N', 'protein stability index', 1.69),
  ('T2L', 'protein stability index', 1.7),
  ('T2E', 'protein stability index', 2.82),
  ('T21S', 'protein stability index', 2.13),
  ('R9D', 'protein stability index', 1.81),
  ('G3V', 'protein stability index', 2.25),
  ('V20D', 'protein stability index', 2.92),
  ('S5Q', 'protein stability index', 1.97),
  ('S7Y', 'protein stability index', 2.02),
  ('A11W', 'protein stability index', 3.03),
  ('Y1D', 'protein stability index', 3.3),
  ('R9M', 'protein stability index', 3.36),
  ('S6N', 'protein stability index', 1.78),
  ('Y1V', 'protein stability index', 2.93),
  ('G18M', 'protein stability index', 1.55),
  ('R9A', 'protein stability index', 1.56),
  ('N19S', 'protein stability index', 1.44),
  ('A11Q', 'protein stability index', 2.21),
  ('G18E', 'protein stability index', 1.44),
  ('Y1R', 'protein stability index', 2.55),
  ('W15P', 'protein stability index', 2.36),
  ('Y16H', 'protein stability index', 2.03),
  ('P4T', 'protein stability index', 1.9),
  ('Y16Q', 'protein stability index', 2.37),
  ('Y16E', 'protein stability index', 2.26),
  ('S7E', 'protein stability index', 2.32),
  ('S7M', 'protein stability index', 1.58),
  ('R9Q', 'protein stability index', 1.81),
  ('G12T', 'protein stability index', 2.17),
  ('W15E', 'protein stability index', 2.52),
  ('R9H', 'protein stability index', 1.45),
  ('A11R', 'protein stability index', 1.85),
  ('Y17T', 'protein stability index', 1.36),
  ('T2D', 'protein stability index', 2.63),
  ('F10P', 'protein stability index', 2.42),
  ('V20Y', 'protein stability index', 2.44),
  ('G3I', 'protein stability index', 2.07);
